Cited source for all entries: ChEMBL document CHEMBL4371007

Target: Cannabinoid receptor 2 (Mus musculus)
Sequence (P47936 whole entry): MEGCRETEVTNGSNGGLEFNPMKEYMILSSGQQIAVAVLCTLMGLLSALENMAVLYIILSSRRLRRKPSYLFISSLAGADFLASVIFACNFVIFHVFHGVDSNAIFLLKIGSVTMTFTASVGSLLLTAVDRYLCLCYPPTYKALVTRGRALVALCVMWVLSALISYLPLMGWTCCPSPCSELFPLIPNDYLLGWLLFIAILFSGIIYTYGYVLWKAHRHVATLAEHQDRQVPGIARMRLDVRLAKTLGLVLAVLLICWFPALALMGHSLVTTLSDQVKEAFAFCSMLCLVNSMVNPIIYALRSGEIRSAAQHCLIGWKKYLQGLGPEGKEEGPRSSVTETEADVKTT
Experiment: Inverse agonist activity at mouse CB2 receptor expressed in HEK293 cells assessed as inhibition of forskolin-mediated cAMP accumulation after 5 mins by fluorescence assay
Type: functional, cell-based

molecule	EC50, nM
CCCCCCC(C)(C)c1cc(OC)c([C@@H]2C=C(CO)[C@H]3C[C@@H]2C3(C)C)c(OC)c1	30
CN1CCCCC1Cn1cc(C(=O)C23CC4CC(CC(C4)C2)C3)c2ccccc21 (stereo unspecified)	15
CCCn1c(C)c(C(=O)c2cccc3ccccc23)c2ccccc21	30
COc1ccc(C(=O)c2c(C)n(CCN3CCOCC3)c3cc(I)ccc23)cc1	25
O=C(c1cn(CCCCCF)c2ccccc12)C12CC3CC(CC(C3)C1)C2	52
CCCCCc1cc(O)c2c(c1)OC(C)(C)[C@@H]1CCC(C)=C[C@@H]21 [DRONABINOL]	7.3

* * *

Target: Adenosine receptor A3 (Homo sapiens) (UniProt P0DMS8)
Sequence (P0DMS8 whole entry): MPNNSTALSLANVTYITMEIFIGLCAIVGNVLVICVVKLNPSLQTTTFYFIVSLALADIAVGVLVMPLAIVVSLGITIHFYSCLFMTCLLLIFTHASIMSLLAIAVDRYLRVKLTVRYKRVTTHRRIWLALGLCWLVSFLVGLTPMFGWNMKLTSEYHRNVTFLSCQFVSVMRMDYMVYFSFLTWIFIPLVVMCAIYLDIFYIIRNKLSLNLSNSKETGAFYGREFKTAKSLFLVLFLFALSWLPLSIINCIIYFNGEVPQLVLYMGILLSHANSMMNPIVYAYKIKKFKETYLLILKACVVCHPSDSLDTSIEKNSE
Assay: Ratio of pEC50 EC50 for agonist activity at human adenosine A3 receptor expressed in FlpIn-CHO cells assessed as inhibition of forskolin-mediated cAMP accumulation to pEC50 for agonist activity at human adenosine A3 receptor expressed in FlpIn-CHO cells assessed as increase in ERK1/2 phosphorylation
Assay type: functional, cell-based

smiles.entry	Ratio EC50
CNC(=O)[C@@]12C[C@@H]1[C@@H](n1cnc3c(NCc4cccc(Cl)c4)nc(C#Cc4ccccc4)nc31)[C@H](O)[C@@H]2O	2.1
CNC(=O)[C@@]12C[C@@H]1[C@@H](n1cnc3c(NCc4cccc(Cl)c4)nc(C#Cc4cc5cccc6ccc7cccc4c7c65)nc31)[C@H](O)[C@@H]2O	3
CNC(=O)[C@@]12C[C@@H]1[C@@H](n1cnc3c(N(C)c4cccc(Cl)c4)nc(Cl)nc31)[C@H](O)[C@@H]2O	1.4
CNC(=O)[C@@]12C[C@@H]1[C@@H](n1cnc3c(NCc4cccc(Cl)c4)nc(C#Cc4ccc5ccc6cccc7ccc4c5c67)nc31)[C@H](O)[C@@H]2O	2.6
CNC(=O)[C@@]12C[C@@H]1[C@@H](n1cnc3c(NCc4cccc(Cl)c4)nc(C#Cc4ccc(-c5ccccc5)cc4)nc31)[C@H](O)[C@@H]2O	3.2

* * *

Target: Adenosine receptor A3 (Homo sapiens) (UniProt P0DMS8)
Experiment: Agonist activity at human adenosine A3 receptor expressed in FlpIn-CHO cells assessed as inhibition of forskolin-mediated cAMP accumulation preincubated for 10 mins followed by forskolin addition measured after 30 mins by alphascreen assay relative to control
Format: functional, cell-based
This listing pairs compounds with measured Emax.
parameter.measured: Emax (%)

smiles.entry	reported.measurement
CNC(=O)[C@@]12C[C@@H]1[C@@H](n1cnc3c(NCc4cccc(Cl)c4)nc(C#Cc4ccc(-c5ccccc5)cc4)nc31)[C@H](O)[C@@H]2O	59
CNC(=O)[C@@]12C[C@@H]1[C@@H](n1cnc3c(NCc4cccc(Cl)c4)nc(C#Cc4ccc(F)c(F)c4)nc31)[C@H](O)[C@@H]2O	89
CNC(=O)[C@@]12C[C@@H]1[C@@H](n1cnc3c(N(C)c4cccc(Cl)c4)nc(Cl)nc31)[C@H](O)[C@@H]2O	70

* * *

Target: Cannabinoid receptor 2 (Mus musculus) (UniProt P47936)
Assay: Inverse agonist activity at mouse CB2 receptor expressed in HEK293 cells assessed as inhibition of forskolin-mediated cAMP accumulation after 5 mins by fluorescence assay relative to control
Assay type: functional, cell-based
Label 1.0 when Emax < 10%; otherwise 0.0.

molecule	qualitative.label
CCCCCc1cc(O)c2c(c1)OC(C)(C)[C@@H]1CCC(C)=C[C@@H]21 [DRONABINOL]	0.0
CCCCCCC(C)(C)c1cc(OC)c([C@@H]2C=C(CO)[C@H]3C[C@@H]2C3(C)C)c(OC)c1	0.0
CN1CCCCC1Cn1cc(C(=O)C23CC4CC(CC(C4)C2)C3)c2ccccc21 (stereo not drawn)	0.0
Cc1c(C(=O)NN2CCCCC2)nn(-c2ccc(Cl)cc2Cl)c1-c1ccc(Cl)cc1	1.0
COc1ccc(C(=O)c2c(C)n(CCN3CCOCC3)c3cc(I)ccc23)cc1	1.0
O=C(c1cn(CCCCCF)c2ccccc12)C12CC3CC(CC(C3)C1)C2	0.0
CCCCCn1cc(C(=O)C2C(C)(C)C2(C)C)c2ccccc21	0.0
CCCn1c(C)c(C(=O)c2cccc3ccccc23)c2ccccc21	0.0
